B1: EEHEE_rd4_0003 (parent)
chain: KKVTINGVEIKFNNPEEAVKFALELAKRLNLRIEFHGDQIKIE

Variants of: B1
method-description: folding stability dG (cDNA display proteolysis); higher = more stable
condition-summary: PBS, room temperature
outcome-measure: folding stability dG (kcal/mol)
Field: numeric (kcal/mol). Do not append units.

Lookup: Give recorded folding stability dG. N6I
Found: 2.41

Lookup: Give recorded folding stability dG. E17F
Found: 2.36

Lookup: Give recorded folding stability dG. N13Y
Found: 2.39

Lookup: Give recorded folding stability dG. N30T
Found: 2.12

Reference source: the MegaScale stability set (Tsuboyama et al. 2023)
